- Tested on: XIP peptide (Xip251-270)
- TEST DESCRIPTION: small-molecule binders of XIP peptide, primary screen, biochemical, small-molecule microarray, fluorescence 635/667 nm, 0.5 µg/mL protein (AID 1183)
- CONDITION DESCRIPTION: small-molecule microarray binding, fluorescence 635 nm; higher = more signal

COMPOUND: CCOC(=O)CCN1C(=O)[C@H]2[C@H]3[C@H](O)[C@H](O)CC(=NNC(=O)OCC)[C@@H]3CC[C@H]2C1=O
TESTED SYSTEM: XIP peptide (Xip251-270)
composite z-score: 0.466

COMPOUND: CCCNC(=O)OC[C@H]1O[C@H](CCON=C(C)CCC(=O)OC[C@H]2O[C@H](C#Cc3ccccc3)C=C[C@@H]2Oc2ccc(C)cc2)C=C[C@@H]1Oc1ccc(OC)cc1
TESTED SYSTEM: XIP peptide (Xip251-270)
composite z-score: -0.439

COMPOUND: CCOC(=O)[C@H](Cc1ccccc1)NC(=O)CCC1CC(OC(=O)NCc2cccc3ccccc23)CC2(CCCC(COC(=O)NCCCN3CCCC3=O)O2)O1 (stereo partly drawn)
TESTED SYSTEM: XIP peptide (Xip251-270)
composite z-score: 0.351

COMPOUND: CC(C)C(=O)N[C@@H]1CCCN1C(=O)C=Cc1ccccc1
TESTED SYSTEM: XIP peptide (Xip251-270)
composite z-score: 0.473

COMPOUND: CC(=O)OC[C@H]1O[C@H](C#CC(C)(C)C)C=C[C@@H]1OC(C)=O
TESTED SYSTEM: XIP peptide (Xip251-270)
composite z-score: 0.575

COMPOUND: O=C1[C@H]2[C@H]3[C@H](O)[C@H](O)CC(=NOCc4ccccc4)[C@H]3CC[C@H]2C(=O)N1Cc1ccccc1
TESTED SYSTEM: XIP peptide (Xip251-270)
composite z-score: 0.0748

COMPOUND: CO[C@@H]1C=CCC(=O)N2CCC[C@H]2C(=O)OC[C@H](C)C(=O)OC[C@H]1C
TESTED SYSTEM: XIP peptide (Xip251-270)
composite z-score: 0.612

COMPOUND: CCN1C(=O)[C@H]2[C@H]3[C@H](O)[C@H](O)CC(=NOC)[C@@H]3CC[C@H]2C1=O
TESTED SYSTEM: XIP peptide (Xip251-270)
composite z-score: 0.774

COMPOUND: CC(C)CCN1CCc2nc(-c3ccccc3)c3c(c2C1)CO[C@@H](C)C3
TESTED SYSTEM: XIP peptide (Xip251-270)
composite z-score: 0.563

COMPOUND: O=C(NN=C1C[C@@H](O)[C@@H](O)[C@@H]2[C@@H]3C(=O)N(Cc4ccc5c(c4)OCO5)C(=O)[C@@H]3CC[C@H]12)OCc1ccccc1
TESTED SYSTEM: XIP peptide (Xip251-270)
composite z-score: 0.222

COMPOUND: CC(C)=NOC[C@@H](O)COCc1ccco1
TESTED SYSTEM: XIP peptide (Xip251-270)
composite z-score: 0.258

COMPOUND: C[C@@H](ON=C1[C@H]2CCn3c(=O)n(-c4ccccc4)c(=O)n3[C@H]2[C@H](O)[C@@H]2O[C@H]12)c1cn([C@H](CO)Cc2ccccc2)nn1
TESTED SYSTEM: XIP peptide (Xip251-270)
composite z-score: 0.297

COMPOUND: CC(C)=CCCC(C)=CCON=C1C[C@@H](O)[C@@H](O)[C@@H]2[C@@H]3C(=O)N([C@@H](C)c4ccccc4)C(=O)[C@@H]3CC[C@H]12
TESTED SYSTEM: XIP peptide (Xip251-270)
composite z-score: 0.105

FYI, the data here is from PubChem BioAssay.
